- System: VDR homodimer (NR concentration 270 nM)
- ASSAY NAME: PBM binding z-score (relative to random genomic background probes); higher = stronger binding; sequences stand for … in GC…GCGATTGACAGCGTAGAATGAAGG
Decision: PBM binding z-score >= 0.3 yields 1, all other cases yield 0.

Please review the following examples before continuing.
[[record]]
sequence_record = "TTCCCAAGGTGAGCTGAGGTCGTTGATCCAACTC"
assigned_class = 1

[[record]]
sequence_record = "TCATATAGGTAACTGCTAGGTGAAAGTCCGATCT"
assigned_class = 0

[[record]]
sequence_record = "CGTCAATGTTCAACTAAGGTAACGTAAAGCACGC"
assigned_class = 1

[[record]]
sequence_record = "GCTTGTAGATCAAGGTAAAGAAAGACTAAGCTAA"
assigned_class = 0


Exercise: Given the entry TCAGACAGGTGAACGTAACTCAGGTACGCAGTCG , answer whether its PBM binding z-score meets or surpasses 0.3.
Key: 1

Exercise: Say whether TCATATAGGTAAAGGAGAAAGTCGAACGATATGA shows PBM binding z-score of 0.3 or more.
Key: 0

Exercise: Has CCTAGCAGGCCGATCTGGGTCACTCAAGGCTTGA a recorded PBM binding z-score greater than or equal to 0.3?
Key: 0

Exercise: hey, is PBM binding z-score for this one >= 0.3? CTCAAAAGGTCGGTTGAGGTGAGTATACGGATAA
Key: 1

Exercise: Please check the record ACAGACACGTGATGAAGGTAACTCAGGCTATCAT and state if its PBM binding z-score is at or above 0.3.
Key: 0

Exercise: For this sequence, is measured PBM binding z-score 0.3 or higher? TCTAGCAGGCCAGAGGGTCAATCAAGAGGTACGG
Key: 1

Exercise: Textbook exercise: given the entry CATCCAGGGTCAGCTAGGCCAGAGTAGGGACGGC , state whether its PBM binding z-score is greater than or equal to 0.3.
Key: 1

---

- Test system: THRa:RXRa (NR concentration 90 nM, RXRa partner concentration 90 nM)
- ASSAY NAME: PBM binding z-score (relative to random genomic background probes); higher = stronger binding; sequences stand for … in GC…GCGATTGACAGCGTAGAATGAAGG
Provide the recorded PBM binding z-score for the entries that follow.
Give bare numbers.

Here are 5 sequences together with their reported answers.
[[record]]
sequence_record = "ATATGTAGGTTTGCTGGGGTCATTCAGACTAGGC"
assayed_system = "THRa:RXRa (NR concentration 90 nM, RXRa partner concentration 90 nM)"
numeric_result = 4.29

[[record]]
sequence_record = "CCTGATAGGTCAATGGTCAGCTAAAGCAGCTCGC"
assayed_system = "THRa:RXRa (NR concentration 90 nM, RXRa partner concentration 90 nM)"
numeric_result = 1.72

[[record]]
sequence_record = "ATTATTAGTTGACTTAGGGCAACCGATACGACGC"
assayed_system = "THRa:RXRa (NR concentration 90 nM, RXRa partner concentration 90 nM)"
numeric_result = 1.65

[[record]]
sequence_record = "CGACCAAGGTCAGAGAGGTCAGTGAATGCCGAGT"
assayed_system = "THRa:RXRa (NR concentration 90 nM, RXRa partner concentration 90 nM)"
numeric_result = 4.15

[[record]]
sequence_record = "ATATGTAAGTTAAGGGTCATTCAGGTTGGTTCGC"
assayed_system = "THRa:RXRa (NR concentration 90 nM, RXRa partner concentration 90 nM)"
numeric_result = 3.5


Could you now look at the following sequence, please?
Exercise: For the sequence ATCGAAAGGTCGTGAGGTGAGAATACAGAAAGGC , what PBM binding z-score is on record?
Key: 3.49

---

- Tested on: PPARa:RXRa (NR concentration 270 nM, RXRa partner concentration 90 nM)
- ASSAY NAME: PBM binding z-score (relative to random genomic background probes); higher = stronger binding; sequences stand for … in GC…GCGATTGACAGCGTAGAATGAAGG
PARAMETER: PBM binding z-score

# count of solved cases: 5
[[record]]
sequence_record = "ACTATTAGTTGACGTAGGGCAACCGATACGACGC"
result = -0.147

[[record]]
sequence_record = "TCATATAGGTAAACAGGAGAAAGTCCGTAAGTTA"
result = 0.987

[[record]]
sequence_record = "AGTCAGAGTTCAGGACGAGGTAACGTAAAGCACG"
result = 3.02

[[record]]
sequence_record = "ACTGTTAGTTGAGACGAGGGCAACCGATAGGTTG"
result = 0.275

[[record]]
sequence_record = "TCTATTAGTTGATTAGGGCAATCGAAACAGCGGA"
result = 0.871


# batch size: 2; output PBM binding z-score per entry
1. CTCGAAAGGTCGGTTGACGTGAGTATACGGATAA
2. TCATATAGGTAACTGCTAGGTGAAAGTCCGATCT

Key:
1. 2.2
2. 1.75

Provide the reported PBM binding z-score of each entry below, same order.
1. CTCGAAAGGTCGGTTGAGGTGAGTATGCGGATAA
2. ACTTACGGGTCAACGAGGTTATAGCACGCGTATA
3. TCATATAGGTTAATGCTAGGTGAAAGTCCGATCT
4. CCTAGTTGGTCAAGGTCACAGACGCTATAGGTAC

Key:
1: 2.67; 2: 5.52; 3: 2.55; 4: 4.38

// for each sequence in input: emit PBM binding z-score
1. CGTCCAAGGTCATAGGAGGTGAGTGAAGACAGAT
2. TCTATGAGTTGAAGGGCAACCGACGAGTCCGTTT
3. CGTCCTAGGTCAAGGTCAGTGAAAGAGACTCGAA

Key:
1. 5.79
2. 1.2
3. 4.87

Give one value of PBM binding z-score per listed sequence.
1. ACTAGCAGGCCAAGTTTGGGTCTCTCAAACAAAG
2. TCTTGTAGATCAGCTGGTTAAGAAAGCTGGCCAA
3. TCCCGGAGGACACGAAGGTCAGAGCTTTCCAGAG
4. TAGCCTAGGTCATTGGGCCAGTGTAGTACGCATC
5. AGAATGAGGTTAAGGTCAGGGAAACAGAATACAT
6. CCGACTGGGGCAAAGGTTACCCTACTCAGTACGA

Key:
-0.417
0.363
1.81
3.86
5.21
4.95

Provide each entry's PBM binding z-score from the list below.
1. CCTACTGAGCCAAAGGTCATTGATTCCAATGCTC
2. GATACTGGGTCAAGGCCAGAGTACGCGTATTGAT
3. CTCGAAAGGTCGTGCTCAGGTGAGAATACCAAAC
4. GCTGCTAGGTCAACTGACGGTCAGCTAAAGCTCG
5. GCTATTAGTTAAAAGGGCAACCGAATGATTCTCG
6. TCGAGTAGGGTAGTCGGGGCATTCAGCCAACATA
7. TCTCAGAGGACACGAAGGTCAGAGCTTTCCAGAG
8. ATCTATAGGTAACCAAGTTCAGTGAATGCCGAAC

Key:
1. 5.53
2. 4.05
3. 4.86
4. 3.92
5. 2.02
6. 0.109
7. 2.07
8. 1.01

Report PBM binding z-score for every entry below.
1. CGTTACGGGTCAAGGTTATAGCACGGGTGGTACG
2. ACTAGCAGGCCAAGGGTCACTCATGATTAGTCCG
3. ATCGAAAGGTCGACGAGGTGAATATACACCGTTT
4. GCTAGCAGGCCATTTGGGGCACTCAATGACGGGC
5. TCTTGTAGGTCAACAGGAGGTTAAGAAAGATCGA
6. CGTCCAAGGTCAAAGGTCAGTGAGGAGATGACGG
7. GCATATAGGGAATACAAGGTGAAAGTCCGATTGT

Key:
1. 5.35
2. 4.38
3. 4.54
4. -0.000395
5. 5.74
6. 7.08
7. 0.924

---

- Tested on: RARa:RXR (NR concentration 270 nM, RXRa partner concentration 90 nM)
- ASSAY NAME: PBM binding z-score (relative to random genomic background probes); higher = stronger binding; sequences stand for … in GC…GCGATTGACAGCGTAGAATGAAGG
I'd be grateful if you could share measured PBM binding z-score for these entries.

Items follow; give PBM binding z-score for each.
1. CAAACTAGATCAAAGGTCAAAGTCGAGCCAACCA
2. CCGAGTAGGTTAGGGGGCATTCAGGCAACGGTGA
3. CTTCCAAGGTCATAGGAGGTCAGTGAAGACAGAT

Key:
1: 6.94; 2: 2.41; 3: 6.14

---

- System: PPARa:RXRa (NR concentration 270 nM, RXRa partner concentration 90 nM)
- ASSAY NAME: PBM binding z-score (relative to random genomic background probes); higher = stronger binding; sequences stand for … in GC…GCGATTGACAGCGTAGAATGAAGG
PARAMETER: PBM binding z-score
Answers are plain numbers.

[[record]]
sequence_record = "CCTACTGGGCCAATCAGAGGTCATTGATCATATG"
numeric_result = 3.87


For each listed entry, give its PBM binding z-score.
1. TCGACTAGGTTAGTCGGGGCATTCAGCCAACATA
2. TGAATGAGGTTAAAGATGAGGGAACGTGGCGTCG
3. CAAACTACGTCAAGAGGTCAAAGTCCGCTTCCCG
4. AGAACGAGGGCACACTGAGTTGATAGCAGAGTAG
5. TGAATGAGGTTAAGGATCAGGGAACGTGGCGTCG

Key:
1. 0.668
2. 3.65
3. 5.09
4. 2.02
5. 3.28

Below is a list of sequences. For each, state its recorded PBM binding z-score.
1. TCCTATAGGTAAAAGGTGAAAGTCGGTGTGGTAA
2. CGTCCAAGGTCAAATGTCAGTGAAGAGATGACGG
3. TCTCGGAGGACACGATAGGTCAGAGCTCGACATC
4. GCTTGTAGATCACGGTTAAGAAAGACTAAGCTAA
5. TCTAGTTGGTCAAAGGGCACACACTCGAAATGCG

Key:
1: 4.65; 2: 6.09; 3: 1.5; 4: -0.169; 5: 4.28

Each of the following entries comes with a recorded value; kindly state PBM binding z-score for each.
1. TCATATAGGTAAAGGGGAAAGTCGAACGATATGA
2. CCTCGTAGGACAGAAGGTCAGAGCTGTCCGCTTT
3. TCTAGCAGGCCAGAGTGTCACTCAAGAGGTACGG
4. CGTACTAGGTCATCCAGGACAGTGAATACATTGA
5. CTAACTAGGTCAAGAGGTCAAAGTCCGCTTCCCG
6. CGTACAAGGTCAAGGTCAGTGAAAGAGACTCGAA
7. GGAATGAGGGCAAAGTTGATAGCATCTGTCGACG

Key:
1: 2.18; 2: 2.11; 3: 0.336; 4: 4.53; 5: 6.55; 6: 6.47; 7: 4.51
